Test system: NCI/ADR-RES ovarian
ASSAY INFO: NCI-60 one-dose screen, 48 h
EXPERIMENTAL CONTEXT: 10 µM unless noted
This is part of a sample that, as a whole, favours compounds with a hit. Of some 83,000 tested, about 20% had one in any assay. Active and inactive are the calls of the source. How the source made its calls: active means growth percent below 10; inactive means the rest.
Your response should consist of one outcome taken from yes = active, no = inactive

CN(C)c1ccc(/C=C/C(=O)c2ccc(Nc3nc(Nc4ccc(F)cc4)nc(Nc4ccc(Cl)cc4)n3)cc2)cc1 = no
CC(C)CN1CC(C(=O)Nc2ccc3c(c2)-c2ccccc2C3)CC1=O (stereo not given) = no
CCCCCn1sc(=O)n(Cc2ccc(CNC(=O)OCc3ccc4c(Cl)cc(Cl)c(O)c4n3)cc2)c1=O = yes
Cc1c2ccccc2nc2c1ccc1cccnc12 = no
COc1cc2c(c(OC)c1OC)C(=O)CC(c1cccc(NC(=O)c3ccccc3Br)c1)O2 (stereo not given) = no
O=C(Cn1nnc([N+](=O)[O-])n1)c1ccccc1 = no
COc1ccc(-c2cc(-c3cc(OC)c(OC)c(OC)c3)c(C#N)c(=O)n2CCCCCC(=O)NO)cc1 = no
O=C(Nc1ccccc1)c1sc(-c2ccccc2)cc1O = no

# lookup: test call for N=c1c2c(=N)n3c(nc2nc2n1-c1ccccc1Sc1ccccc1-2)sc1cc(Cl)ccc13
no

Now try C=CC(=O)N1CCN(c2ccc3cccc(NC(=O)c4cnc(C)cn4)c3n2)CC1 .
no

====

Tested on: CAKI-1 renal
ASSAY INFO: NCI-60 one-dose screen, 48 h (100 = growth as untreated, 0 = no growth, -100 = all killed)
EXPERIMENTAL CONTEXT: 10 µM unless noted
The panel holds about 83,000 compounds, 20% with a hit somewhere; the sample as a whole holds those more often.
Listing: growth of selected compounds
Give a bare numeral; the unit % is implied.

C=C1C(=O)O[C@H]2[C@H]1CC/C(COC(=O)NCc1ccc(Cn3c(=O)sn(-c4ccc(OC)cc4)c3=O)cc1)=C\CC[C@@]1(C)O[C@@H]21 = 55.9
COc1ccc2c(c1)c(-c1nc(-c3cn(C)c4ncccc34)cs1)cn2CCO = 88.7
O=C(OC[C@@H]1CO1)c1cccc2c(=O)c3ccccc3[nH]c12 = -13.2
CN(CCC#N)c1ccc(/C=C2\NC(=O)NC2=O)cc1 = 82.8
C#CC#CC#CC#CC#CC#CC#CC#CC[C@H]1OC[C@@H](COC(=O)O[C@@H](C(=O)O[C@H]2C[C@@]3(O)[C@@H](OC(=O)c4ccccc4)[C@@H]4[C@]5(OC(C)=O)CO[C@@H]5C[C@H](O)[C@@]4(C)C(=O)[C@H](OC(C)=O)C(=C2C)C3(C)C)[C@@H](NC(=O)c2ccccc2)c2ccccc2)O1 = 79.6
CCCCC(=O)Nc1ncc(Cc2ccccc2Cl)s1 = 37.8

Returns the measured growth for the input compound. Input: C[C@@H]1O[C@@H](O[C@@H]2C[C@H](c3ccc4c(c3O)C(=O)C3=C(C4=O)[C@@]4(O)C(=O)C[C@](C)(O)C[C@@]4(O)C=C3)O[C@H](C)[C@H]2O)C[C@H](O)[C@@H]1O
88.1

Cc1ccc(N=Nc2c(N)nn(-c3ccccc3)c2N)cc1 ?
-2.05

Follow-up entry: NC(=O)c1c(NC(=O)c2ccc(Cl)cc2)sc2c1CCC(=O)C2
18.6

Follow-up entry: O=C(Cn1nnc2ccccc21)N/N=C/c1ccccc1F
97.9

Next record, please: CCN(CC)c1ccc(/C=C\c2cc(C)c3cc(C)ccc3n2)cc1
28.5

Here is the next compound: CC(C)[C@@]12C[C@@H](OC(=O)COC(=O)c3ccccc3)[C@@](C)(O1)[C@@H]1CC[C@@H](C)[C@H]1[C@@H]2OC(=O)/C=C/c1ccccc1
5.14

Entry O=C1CCCc2nc3sc4c(=O)n(-c5ccccc5Cl)nnc4c3cc21 please
97.6

What would you report for COc1cc(/C=C2\CN(S(=O)(=O)c3ccc(C)cc3)C/C(=C\c3cc(CN4CCCCC4)c(O)c(OC)c3)C2=O)cc(CN2CCCCC2)c1O ?
-89

====

Tested on: MDA-MB-231 breast
ASSAY INFO: NCI-60 one-dose screen, 48 h (100 = growth as untreated, 0 = no growth, -100 = all killed)
EXPERIMENTAL CONTEXT: 10 µM unless noted
The panel holds about 83,000 compounds, 20% with a hit somewhere; the sample as a whole holds those more often. The source made the active and inactive calls. How the source made its calls: active means growth percent below 10; inactive means the rest.
# key: entry, value: growth

COc1ccc2cc(-c3ccc(-c4ccc(C(=N)N)s4)s3)ccc2c1 = -15.2% (active)
COc1ccc(C(C)=O)cc1S(N)(=O)=O = 103% (inactive)
COc1cc(C2=NN(C(C)=O)C(c3ccc(N(C)C)cc3)C2)cc(OC)c1OC (stereo not given) = 74.1% (inactive)
CCCCCCCCn1ccc2cc(NC(=O)Cn3cc(CN4CCOCC4)nn3)ccc21 = 90.5% (inactive)
CN1CCN(CCCOC(=O)c2c3c(n4ccccc24)C(=O)c2ncccc2C3=O)CC1 = 20% (inactive)
N=c1c2c(=N)n3c(nc2nc2n1-c1ccccc1Sc1ccccc1-2)sc1cc(Cl)ccc13 = 32.1% (inactive)

Record request: growth value, item CSCCC(NC(=O)c1ccccc1)C(=O)N/N=C1\S/C(=C/c2ccc(Cl)cc2)C(=O)N1C (stereo not given)
75.6% (inactive)

Queued: O=C1OCC2=C1C(c1cccc(C(F)(F)F)c1)c1cc3c(cc1N2CCO)OCO3 (stereo not given)
44% (inactive)

====

Test system: UACC-257 melanoma
ASSAY INFO: NCI-60 one-dose screen, 48 h (100 = growth as untreated, 0 = no growth, -100 = all killed)
EXPERIMENTAL CONTEXT: 10 µM unless noted
Protocol: Cells are grown in 96 well plates and exposed to the test compound for 48 hours. Compounds are tested at a single concentration, which is 10^-5 M for most compounds. The reported endpoint is percent growth (GI% or GIPRCNT), where numbers from 0 - 100% represent growth inhibition, and numbers from -100% - 0 represent cell death. For example, a value of 40 represents 60% growth inhibition. A value of 0 means no net growth occurred over the course of the experiment. […]
Compounds without any hit were thinned out: in the full panel of roughly 83,000, 20% have a hit.
VALUE TYPE: growth (%)
API: value field is a number in %; no unit string.

CC1=NN(c2ccc(Cl)cc2)CC1(C)N=O (stereo not given) = 90
O=C(c1ccc(F)c(Cl)c1)N1c2ccccc2Sc2ccccc21 = 61
COc1ncc2cc1NS(=O)(=O)c1cccc(c1)C(=O)NCC1=CC=C(S1)c1ncnc3c1SC2=C3C = -1.33

Looking for the measured growth of COc1cccc(/C=C2\COc3ccc(O)cc3C2=O)c1 , can you help?
111

Now try COc1ccc(-c2cc(C(=O)N3N=C(c4ccc(N)cc4)CC3c3ccccc3)c3ccccc3n2)cc1 (stereo not given) .
47.2

====

Measured growth of individual entries
Tested on: HS 578T breast
ASSAY INFO: NCI-60 one-dose screen, 48 h (100 = growth as untreated, 0 = no growth, -100 = all killed)
EXPERIMENTAL CONTEXT: 10 µM unless noted
The panel holds about 83,000 compounds, 20% with a hit somewhere; the sample as a whole holds those more often.
Quick reminder: number only, in %, skip the unit.

COC(=O)c1nc(-c2ccccc2)oc1S(=O)(=O)N1CCC(C(N)=O)CC1 = 86.7
COC(=O)C1=Nc2ccc(F)cc2/C1=C\c1sc(Nc2ccc(O)cc2)nc1O = 46.1
CC1(C)C2CC=C(/C=N/NC(=O)C3CCC(=O)N3)C1C2 (stereo not given) = 104
COc1cccc(NC(=O)c2cccc(C3CCc4c(cc(OC)c(OC)c4OC)O3)c2)c1 (stereo not given) = 86.6
N#C/C(=C\c1ccc(-c2ccc(Cl)cc2)o1)c1ccc(Cl)cc1 = 29.8

Looking for the measured growth of O=C1/C=C/[C@@H](O)[C@@H]2C[C@@H](O)C[C@H]2/C=C/CCC[C@H](CCOCc2ccccc2)O1 , can you help?
23.8

Here is the next compound: C#CCOc1cccc(-c2ncc3cc(NC(=O)CCl)ccc3n2)c1
31.7

Same question for Cc1cc(C)cc(Nc2ccc([N+](=O)[O-])c(NCCN3CCOCC3)n2)c1 please.
21.6

Follow-up item: CCCCN1C(=O)/C(=c2\sc3n(c2=O)NC2C(N=3)N(CC)C(=O)N2CC)c2ccccc21 (stereo not given)
40.2

Moving on to COc1ccc(C2CC(c3ccc4c(c3)OCO4)=Nc3c(N)ncnc3N2)cc1 (stereo not given)
103

====

System: RXF 393 renal
ASSAY INFO: NCI-60 one-dose screen, 48 h (100 = growth as untreated, 0 = no growth, -100 = all killed)
EXPERIMENTAL CONTEXT: 10 µM unless noted
About 83,000 compounds went through this panel and 20% of them were active in at least one assay; those are over-represented in the sample as a whole.
Quick list: growth per entry.
Write the answer as a number in %, unit excluded.

Look over these answered cases.
Cn1c(=O)c2c(c3ccccc31)OC(N)=C(C#N)C21C(=O)c2ccccc2C1=O = 91
O=C(N/N=C/c1ccc(O)cc1O)c1ccc(Nc2ccnc(C(F)(F)F)c2)cc1 = 95.3

Requested read-out: growth. Entry: CCC(C)Nc1ccc(NC(C)CC)cc1 (stereo unspecified)
81.8

How about CC/C(Cc1ccccc1)=C(\c1ccc(OCCN2CCCCCC2)cc1)c1ccc(OC(=O)NCc2ccccc2)cc1 ?
77.4

What do we get for C=CC(C)(O)CC/C=C(\CO)C(=O)OC1C(C)OC(O[C@](C)(C=C)CC/C=C(\CO)C(=O)O[C@H]2C[C@@]3(C(=O)OC4OC(CO)C(O)C(O)C4OC4OC(C)C(OC5OC(CO)C(O)C5O)C(OC5OC(CO)C(O)C(O)C5O)C4O)C(CC2(C)C)C2=CCC4[C@@]5(C)CC[C@H](OC6OC(COC7OC(C)C(O)C(O)C7OC7OCC(O)C(O)C7O)C(O)C(O)C6NC(C)=O)C(C)(C)C5CC[C@@]4(C)[C@]2(C)C[C@H]3O)C(O)C1O (stereo partly specified) ?
-31.3

Now the molecule O=C(O)c1cn(C2CC2)c2cc(N3CCN(C(=O)N/N=C/c4ccccc4)CC3)c(F)cc2c1=O
104
